Where do these numbers come from? They come from patent US20210087281A1.

- target system: native mouse MET on living cells (mouse, UniProt P16056 25-1379)
- experiment summary: cell-based or functional assay
Parameter branches per spheroid, MLP29 cells, 2.5 nM: see the listing below.
# number only, unit branches dropped from output

{"columns": ["binder", "numeric value"],
 "data": [
  ["71D6 chimeric llama-human IgG1 mAb (antibody, V domains shown, llama VH on human IgG1 CH1-CH2-CH3, llama VL on human lambda CL) VH: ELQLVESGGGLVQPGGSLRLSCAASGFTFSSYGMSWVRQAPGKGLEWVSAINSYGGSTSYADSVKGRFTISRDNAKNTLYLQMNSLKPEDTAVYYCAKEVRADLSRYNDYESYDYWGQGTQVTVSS VL: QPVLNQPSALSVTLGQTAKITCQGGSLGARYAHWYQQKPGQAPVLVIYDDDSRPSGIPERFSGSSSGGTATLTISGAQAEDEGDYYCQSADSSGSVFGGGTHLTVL", 39],
  ["71D4 chimeric llama-human IgG1 mAb (antibody, V domains shown, llama VH on human IgG1 CH1-CH2-CH3, llama VL on human lambda CL) VH: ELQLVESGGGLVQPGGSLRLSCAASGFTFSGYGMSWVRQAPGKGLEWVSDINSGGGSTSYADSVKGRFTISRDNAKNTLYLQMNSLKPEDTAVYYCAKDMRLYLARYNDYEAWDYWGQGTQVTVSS VL: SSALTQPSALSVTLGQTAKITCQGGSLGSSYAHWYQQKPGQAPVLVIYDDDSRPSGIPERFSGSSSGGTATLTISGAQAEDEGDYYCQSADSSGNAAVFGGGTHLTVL", 14.7]
]}

Fill blank: measured branches per spheroid, MLP29 cells, 2.5 nM of the binder 76H10 chimeric llama-human IgG1 mAb (antibody, V domains shown, llama VH on human IgG1 CH1-CH2-CH3, llama VL on human lambda CL) VH: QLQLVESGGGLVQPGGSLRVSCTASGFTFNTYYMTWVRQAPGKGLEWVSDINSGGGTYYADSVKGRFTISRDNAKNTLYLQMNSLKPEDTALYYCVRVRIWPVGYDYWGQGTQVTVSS VL: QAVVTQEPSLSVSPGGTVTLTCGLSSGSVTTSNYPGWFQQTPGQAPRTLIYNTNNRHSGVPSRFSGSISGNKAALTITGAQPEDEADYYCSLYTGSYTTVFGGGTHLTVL is ____.
14.3
